Data credit: ChEMBL document CHEMBL1201862

- Test system: LOX IMVI
- protocol: NCI tumour cell line growth inhibition, 48 h
Calls of active or inactive are those of the source. Cut-off read from the data, not from the text of the source: active = GI50 up to about 1.1 µM and inactive = higher.
Entries annotated with measured GI50

C=C(CCOC)CCC1CCCCC/C1=N\N(C)C (stereo unspecified)    > 100 µM (inactive)
CCNC1CC(C(C)(C)NCC)CC=C1C (stereo unspecified)    > 100 µM (inactive)
NS(=O)(=O)c1cc2c(cc1Cl)N=C(CCC(=O)O)NS2(=O)=O    > 100 µM (inactive)
CC1=NC(=O)CNN1C1=NNC2(C(=O)N1)c1ccccc1-c1ccccc12    > 100 µM (inactive)
N/C(=N\c1ccccc1Cl)c1ccccc1N    > 100 µM (inactive)

Query string: Requested field: GI50. Item: CC(=O)OCC1=CC2CCC3C(C)(CCC[C@]3(C)COC(C)=O)C23CC[C@H]1C3 (stereo partly specified)
Result string: 25 µM (inactive)
